Experiment: amyloid nucleation score (Sup35N fusion, yeast selection) (log enrichment); library NNK2; higher = more nucleation; inactive = no reads after selection;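 further: zero at mode of non-aggregating sequences after 7 days selection at 30°C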
EXPERIMENTAL ENDPOINT: amyloid nucleation score
Please reply with the number alone, leaving off any unit.

Reference set, count: 6
{"SEQUENCE CONTENT": "PKMRFFPIARSSIRERNVWV", "amyloid nucleation score": -1.31}
{"SEQUENCE CONTENT": "YWSCTMRVFRVTLNCSNS", "amyloid nucleation score": 3.44}
{"SEQUENCE CONTENT": "KISSMAVI", "amyloid nucleation score": 0.069}
{"SEQUENCE CONTENT": "VPGDDPSIVTVMQMYGFSLI", "amyloid nucleation score": -0.385}
{"SEQUENCE CONTENT": "FAYSLHRLLWIRCMYSNGR", "amyloid nucleation score": 1.45}
{"SEQUENCE CONTENT": "MGMFKTCVHLNCVYR", "amyloid nucleation score": 5.23}

Inquiry: Given the sequence "GLSRLTRYNNGNITTHSNWH" , what is its reported amyloid nucleation score?
Reply text: -0.074

Inquiry: Given the sequence "MYIMLFRFVRIVDLLDCLGN" , what is its reported amyloid nucleation score?
Reply text: 0.207

Inquiry: Given the sequence "CWGVVGSAAGWYSGTK" , what is its reported amyloid nucleation score?
Reply text: 1.46

Inquiry: Given the sequence "FSPIYRHGHKCML" , what is its reported amyloid nucleation score?
Reply text: -0.672

Inquiry: Given the sequence "DVHTVCASSKHHLRVVKAVT" , what is its reported amyloid nucleation score?
Reply text: 0.494

Inquiry: Given the sequence "KQLKWFCITK" , what is its reported amyloid nucleation score?
Reply text: -0.862

Inquiry: Given the sequence "RNGLTFRRTYSAYC" , what is its reported amyloid nucleation score?
Reply text: 1.01

Inquiry: Given the sequence "LFRCELSLGRHMGFLDWEWG" , what is its reported amyloid nucleation score?
Reply text: 0.201

Inquiry: Given the sequence "SYADRVILLVSCVVPWAPLR" , what is its reported amyloid nucleation score?
Reply text: 3.31

----------
Assay: amyloid nucleation score (Sup35N fusion, yeast selection) (log enrichment); library NNK1; higher = more nucleation; inactive = no reads after selection
EXPERIMENTAL ENDPOINT: amyloid nucleation score
Please reply with the number alone, leaving off any unit.

Reference set, count: 7
{"SEQUENCE CONTENT": "ITMSYMSAKCVNWVVWACRL", "amyloid nucleation score": 0.286}
{"SEQUENCE CONTENT": "VVSYWTHYPNKSLSWASWAA", "amyloid nucleation score": -0.671}
{"SEQUENCE CONTENT": "NFLNGLMLTSRVRKFLASGY", "amyloid nucleation score": -0.161}
{"SEQUENCE CONTENT": "MVLDLVRRNAQL", "amyloid nucleation score": -0.151}
{"SEQUENCE CONTENT": "VCDFNVNYMSLVCEIHGT", "amyloid nucleation score": 0.495}
{"SEQUENCE CONTENT": "WLWPPLACDHMPIAVSETDA", "amyloid nucleation score": -0.775}
{"SEQUENCE CONTENT": "ADCFNLYGRTFDKFKPPHMD", "amyloid nucleation score": 0.631}

# evaluate next
Inquiry: Given the sequence "LLALYCNDPKLEDSTLREFN" , what is its reported amyloid nucleation score?
Reply text: 1.15

----------
Test: amyloid nucleation score (Sup35N fusion, yeast selection) (log enrichment); library NNK2; higher = more nucleation; inactive = no reads after selection
EXPERIMENTAL ENDPOINT: amyloid nucleation score
Please reply with the number alone, leaving off any unit.

{"SEQUENCE CONTENT": "VAFKRLGNMSSGTFSWAMLN", "amyloid nucleation score": 0.894}
{"SEQUENCE CONTENT": "YRNRVSLRKYRDARYQLCCT", "amyloid nucleation score": 0.247}
{"SEQUENCE CONTENT": "WKVVSEIWIMGTSSTFVTDH", "amyloid nucleation score": 1.11}
{"SEQUENCE CONTENT": "LFLTHPARWSSNLRRLL", "amyloid nucleation score": 0.069}
{"SEQUENCE CONTENT": "GKIRIENGLRGSLGDIRHNI", "amyloid nucleation score": -0.623}

Inquiry: Given the sequence "YSPSVVVDCRSGRDRNLRGY" , what is its reported amyloid nucleation score?
Reply text: -0.254

Inquiry: Given the sequence "WSLYHASERENIRPALTSIW" , what is its reported amyloid nucleation score?
Reply text: 0.325

Inquiry: Given the sequence "MHASDDMLKCWYKCAEVRPA" , what is its reported amyloid nucleation score?
Reply text: 1.29

Inquiry: Given the sequence "RYVLSMFQLLLTYVQL" , what is its reported amyloid nucleation score?
Reply text: 0.561

Inquiry: Given the sequence "SSLTANGNNSMT" , what is its reported amyloid nucleation score?
Reply text: -0.173

Inquiry: Given the sequence "GMRGNSYAVSYRDIVVLAPC" , what is its reported amyloid nucleation score?
Reply text: -0.007

Inquiry: Given the sequence "TGDSVGLGLLGSWRNEKVCD" , what is its reported amyloid nucleation score?
Reply text: 0.088

Inquiry: Given the sequence "CNLSVVYLLDMAD" , what is its reported amyloid nucleation score?
Reply text: 3.99

Inquiry: Given the sequence "RMNGRYNLCTATGLVSASWW" , what is its reported amyloid nucleation score?
Reply text: 0.09

----------
Assay: amyloid nucleation score (Sup35N fusion, yeast selection) (log enrichment); library NNK2; higher = more nucleation; inactive = no reads after selection
Quick reference: amyloid nucleation score of the listed items.
Please reply with the number alone, leaving off any unit.

{"SUBSTANCE": "LWGMGGAWEPERETLVV", "EXPERIMENTAL ENDPOINT": "amyloid nucleation score", "ASSAY VALUE": -0.268}

Inquiry: Given the substance "YVITSSPSLYACICSGVSVR" , what is its reported amyloid nucleation score?
Reply text: 4.87

Inquiry: Given the substance "PHRSPMGANHPERCLVPMLF" , what is its reported amyloid nucleation score?
Reply text: -0.134

Inquiry: Given the substance "DGRKALI" , what is its reported amyloid nucleation score?
Reply text: 1.87

Inquiry: Given the substance "QSTHMNT" , what is its reported amyloid nucleation score?
Reply text: -0.364

----------
Assay: amyloid nucleation score (Sup35N fusion, yeast selection) (log enrichment); library NNK2; higher = more nucleation; inactive = no reads after selection
Quick reference: amyloid nucleation score of the listed items.
Please reply with the number alone, leaving off any unit.

Reference set, count: 2
{"SEQUENCE CONTENT": "WWYGGLEMGFIICFRIPNVI", "EXPERIMENTAL ENDPOINT": "amyloid nucleation score", "ASSAY VALUE": -0.606}
{"SEQUENCE CONTENT": "YLFVQEKKRVFRYFRWRHPV", "EXPERIMENTAL ENDPOINT": "amyloid nucleation score", "ASSAY VALUE": -0.032}

Inquiry: Given the sequence "IYRRPMENI" , what is its reported amyloid nucleation score?
Reply text: -0.389

Inquiry: Given the sequence "NLISKDIVLHWSRALC" , what is its reported amyloid nucleation score?
Reply text: 0.339

Inquiry: Given the sequence "VEGTPMFVWINWGVGKVGQS" , what is its reported amyloid nucleation score?
Reply text: 3.42

Inquiry: Given the sequence "GPYFVNYPLKTNSIVLWELA" , what is its reported amyloid nucleation score?
Reply text: 0.356

Inquiry: Given the sequence "FVTFWDYWSSRGDPMMSYRV" , what is its reported amyloid nucleation score?
Reply text: 0.13

Inquiry: Given the sequence "CEMLCQTIHSTLTWGIRRLS" , what is its reported amyloid nucleation score?
Reply text: 1.12

Inquiry: Given the sequence "GSVYKCLGSWVIYRFIFSWV" , what is its reported amyloid nucleation score?
Reply text: 1.19

Inquiry: Given the sequence "MLWWLYLTDYSISGYNVGKM" , what is its reported amyloid nucleation score?
Reply text: 0.433

Inquiry: Given the sequence "NMPMQSYTIMVWSLQGMAAG" , what is its reported amyloid nucleation score?
Reply text: 0.705

Inquiry: Given the sequence "WQENFSHCNLSMLCEVNLSK" , what is its reported amyloid nucleation score?
Reply text: -0.44

Inquiry: Given the sequence "SYRELIYRDWLYRHVTL" , what is its reported amyloid nucleation score?
Reply text: 1.1

Inquiry: Given the sequence "PWHVYFDRNGWPYGSQRVQG" , what is its reported amyloid nucleation score?
Reply text: 0.718

Inquiry: Given the sequence "GWFFDFFITCPVSHSTFSKL" , what is its reported amyloid nucleation score?
Reply text: 2.19

----------
Assay: amyloid nucleation score (Sup35N fusion, yeast selection) (log enrichment); library NNK1; higher = more nucleation; inactive = no reads after selection
EXPERIMENTAL ENDPOINT: amyloid nucleation score

{"SUBSTANCE": "VFEADQNENGTTAPSEAQDR", "amyloid nucleation score": -0.088}
{"SUBSTANCE": "YRCTLASNRLRFLWITSNVR", "amyloid nucleation score": -0.085}
{"SUBSTANCE": "RDRDVEFTNDL", "amyloid nucleation score": 0.614}
{"SUBSTANCE": "VALDMYCFQYFQTNYYS", "amyloid nucleation score": 8.41}
{"SUBSTANCE": "GPSVPLGVFEKKTAFLKKTL", "amyloid nucleation score": -0.328}
{"SUBSTANCE": "CFEYFY", "amyloid nucleation score": -0.664}
{"SUBSTANCE": "ASFSNCWG", "amyloid nucleation score": 0.486}
{"SUBSTANCE": "AFGVYRVCLVWVHL", "amyloid nucleation score": 0.232}

Inquiry: Given the substance "GDIVQLGPKFCKLYLCIWNC" , what is its reported amyloid nucleation score?
Reply text: 6.37

Inquiry: Given the substance "RTSPSYGIPNWAELLRVE" , what is its reported amyloid nucleation score?
Reply text: -0.311

Inquiry: Given the substance "GYNMTKAYQCVCFIGDLPGT" , what is its reported amyloid nucleation score?
Reply text: 4.61

Inquiry: Given the substance "ICWNHTTVGFGMIMVVYYL" , what is its reported amyloid nucleation score?
Reply text: 1.95

Inquiry: Given the substance "KLVVKWRGFLEDGDRTLWLV" , what is its reported amyloid nucleation score?
Reply text: 3.49

Inquiry: Given the substance "ALRGVRVMWAKRS" , what is its reported amyloid nucleation score?
Reply text: -0.484
